- target.desc: GlyT2 (Rattus norvegicus)
- Construct: expressed in transfected cells; host or cells: COS7
- Sequence (P58295 1-799): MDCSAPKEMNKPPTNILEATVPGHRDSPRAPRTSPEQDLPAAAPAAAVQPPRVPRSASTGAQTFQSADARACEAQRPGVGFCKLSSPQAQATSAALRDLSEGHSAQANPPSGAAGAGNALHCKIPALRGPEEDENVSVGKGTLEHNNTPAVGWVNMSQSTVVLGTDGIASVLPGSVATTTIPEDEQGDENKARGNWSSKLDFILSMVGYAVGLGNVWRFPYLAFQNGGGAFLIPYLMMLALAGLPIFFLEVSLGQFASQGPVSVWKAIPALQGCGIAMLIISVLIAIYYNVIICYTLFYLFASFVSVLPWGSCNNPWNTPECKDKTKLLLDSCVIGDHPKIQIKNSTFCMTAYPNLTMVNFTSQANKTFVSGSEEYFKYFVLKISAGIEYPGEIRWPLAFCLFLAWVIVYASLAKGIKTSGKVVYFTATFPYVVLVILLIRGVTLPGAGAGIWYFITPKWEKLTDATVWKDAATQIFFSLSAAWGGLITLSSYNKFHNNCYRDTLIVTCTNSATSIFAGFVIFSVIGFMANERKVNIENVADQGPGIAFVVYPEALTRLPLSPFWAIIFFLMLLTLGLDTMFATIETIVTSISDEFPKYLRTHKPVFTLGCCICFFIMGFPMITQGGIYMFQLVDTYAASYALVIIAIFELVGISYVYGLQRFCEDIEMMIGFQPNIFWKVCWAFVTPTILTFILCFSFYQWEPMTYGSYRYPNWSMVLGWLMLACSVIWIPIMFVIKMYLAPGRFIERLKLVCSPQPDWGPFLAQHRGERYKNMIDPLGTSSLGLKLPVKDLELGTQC
- experimental.details: [3H]glycine transport by recombinant GlyT2 expressed in COS7 cells
- Assay type: cell-based
- measurement.context: 25 mM NaCl, choline chloride substitution; read-out: IC50, inhibition of [3H]-glycine transport, low sodium
value.type: IC50 (nM)
Give your result in nM as a bare value.

Record request: IC50 value, item N[C@@H](COC(c1cccc(F)c1)c1ccccc1OCc1ccccc1)C(=O)O (stereo partly shown) [ALX1393]
122

* * *

- target.desc: GlyT2 F478Y mutant (Rattus norvegicus, UniProt P58295, F478Y)
- Construct: expressed in transfected cells; host or cells: COS7
- Sequence (P58295 1-799 F478Y): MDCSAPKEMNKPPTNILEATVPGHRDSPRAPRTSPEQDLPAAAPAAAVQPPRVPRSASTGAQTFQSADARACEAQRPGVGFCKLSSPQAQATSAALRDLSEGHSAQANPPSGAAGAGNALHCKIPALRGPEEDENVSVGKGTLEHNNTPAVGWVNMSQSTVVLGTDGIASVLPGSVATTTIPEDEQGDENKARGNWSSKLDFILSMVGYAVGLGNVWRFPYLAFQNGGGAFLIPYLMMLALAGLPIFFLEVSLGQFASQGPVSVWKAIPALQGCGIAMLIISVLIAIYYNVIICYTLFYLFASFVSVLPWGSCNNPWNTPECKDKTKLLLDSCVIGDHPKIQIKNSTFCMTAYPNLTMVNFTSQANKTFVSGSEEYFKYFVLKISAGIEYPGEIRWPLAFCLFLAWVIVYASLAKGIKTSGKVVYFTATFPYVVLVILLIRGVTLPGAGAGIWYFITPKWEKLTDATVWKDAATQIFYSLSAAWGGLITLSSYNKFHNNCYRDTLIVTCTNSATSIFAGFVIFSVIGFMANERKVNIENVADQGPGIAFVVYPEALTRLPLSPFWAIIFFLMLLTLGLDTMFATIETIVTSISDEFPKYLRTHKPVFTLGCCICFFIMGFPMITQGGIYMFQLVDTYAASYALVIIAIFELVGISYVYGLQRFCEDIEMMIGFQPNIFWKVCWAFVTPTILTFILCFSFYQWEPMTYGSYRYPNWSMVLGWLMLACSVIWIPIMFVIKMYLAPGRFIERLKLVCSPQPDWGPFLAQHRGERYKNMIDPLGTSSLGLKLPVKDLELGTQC
- experimental.details: [3H]glycine transport by GlyT2 mutant in COS7 cells
- Format: cell-based
value.type: pIC50
Please express pIC50 as -log10 of the molar concentration.

Which pIC50 is reported for this compound? COc1cc(C(=O)NCC2(N(C)C)CCCC2)cc(OC)c1OCc1ccccc1 [ORG25543]
7.72

* * *

- target.desc: GlyT2 T580C mutant (Rattus norvegicus, UniProt P58295, T580C)
- Construct: expressed in transfected cells; host or cells: COS7
- experimental.details: [3H]glycine transport by GlyT2 mutant in COS7 cells
- Format: cell-based
value.type: pIC50
Conceptually, pIC50 converts a concentration in mol/L into minus its log10.

# lookup: pIC50 of COc1cc(C(=O)NCC2(N(C)C)CCCC2)cc(OC)c1OCc1ccccc1
7.02

* * *

- target.desc: GlyT2 G214L mutant (Rattus norvegicus, UniProt P58295, G214L)
- Construct: expressed in transfected cells; host or cells: COS7
- experimental.details: [3H]glycine transport by GlyT2 mutant in COS7 cells
- Assay type: cell-based
value.type: pIC50
Just so you know, pIC50 here is -log10 of the concentration in molar units; reply with that number alone.

Form field: reported pIC50 of COc1cc(C(=O)NCC2(N(C)C)CCCC2)cc(OC)c1OCc1ccccc1
7.77

* * *

- target.desc: GlyT2 A639C mutant (Rattus norvegicus, UniProt P58295, A639C)
- Construct: expressed in transfected cells; host or cells: COS7
- experimental.details: [3H]glycine transport by GlyT2 mutant in COS7 cells
- Format: cell-based
- measurement.context: read-out: IC50 (Table S1)
value.type: pIC50
Hey, just a heads up that pIC50 is the negative log base 10 of the concentration in molar.

pIC50 lookup needed for N[C@@H](COC(c1cccc(F)c1)c1ccccc1OCc1ccccc1)C(=O)O (stereo partly shown) , thanks.
7.66

* * *

- target.desc: GlyT2 T580C mutant (Rattus norvegicus, UniProt P58295, T580C)
- Construct: expressed in transfected cells; host or cells: COS7
- experimental.details: [3H]glycine transport by GlyT2 mutant in COS7 cells
- Type: cell-based
- measurement.context: read-out: IC50 (Table S1)
value.type: pIC50
As a rule, pIC50 stands for the negative log10 of the concentration, concentration in M.

Look at this molecule and give its reported pIC50. N[C@@H](COC(c1cccc(F)c1)c1ccccc1OCc1ccccc1)C(=O)O (stereo partly shown) [ALX1393]
7.08

* * *

- target.desc: GlyT2 D635E mutant (Rattus norvegicus, UniProt P58295, D635E)
- Sequence (P58295 1-799 D635E): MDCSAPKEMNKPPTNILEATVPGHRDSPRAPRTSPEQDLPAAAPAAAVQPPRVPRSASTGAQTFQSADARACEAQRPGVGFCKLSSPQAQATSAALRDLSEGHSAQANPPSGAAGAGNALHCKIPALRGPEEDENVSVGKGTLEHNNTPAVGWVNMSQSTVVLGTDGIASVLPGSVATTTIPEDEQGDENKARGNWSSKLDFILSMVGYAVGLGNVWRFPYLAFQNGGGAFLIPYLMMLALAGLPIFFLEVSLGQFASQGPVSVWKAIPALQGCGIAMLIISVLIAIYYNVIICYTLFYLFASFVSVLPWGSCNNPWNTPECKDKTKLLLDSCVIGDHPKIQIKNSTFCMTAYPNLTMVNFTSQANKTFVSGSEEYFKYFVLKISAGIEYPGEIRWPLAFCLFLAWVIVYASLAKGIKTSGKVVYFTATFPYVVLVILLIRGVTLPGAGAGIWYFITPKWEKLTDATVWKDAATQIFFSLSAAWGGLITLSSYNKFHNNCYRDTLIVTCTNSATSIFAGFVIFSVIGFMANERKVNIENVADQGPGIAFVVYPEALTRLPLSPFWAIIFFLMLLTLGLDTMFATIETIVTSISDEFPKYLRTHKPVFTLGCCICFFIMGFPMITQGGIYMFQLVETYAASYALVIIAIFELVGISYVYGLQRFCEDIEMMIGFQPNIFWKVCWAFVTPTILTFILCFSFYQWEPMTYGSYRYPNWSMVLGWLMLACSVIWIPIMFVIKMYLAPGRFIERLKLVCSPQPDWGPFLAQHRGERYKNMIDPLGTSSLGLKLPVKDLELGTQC
- experimental.details: [3H]glycine transport by GlyT2 mutant in COS7 cells
- measurement.context: read-out: IC50 (Table S1)
value.type: pIC50
FYI, pIC50 means -log10 of a concentration in mol per litre.

For the compound shown here, N[C@@H](COC(c1cccc(F)c1)c1ccccc1OCc1ccccc1)C(=O)O (stereo partly shown) , give the reported pIC50.
7.52

* * *

Overview of recorded IC50 for various molecules
- target.desc: GlyT2 S640C mutant (Rattus norvegicus, UniProt P58295, S640C)
- Sequence (P58295 1-799 S640C): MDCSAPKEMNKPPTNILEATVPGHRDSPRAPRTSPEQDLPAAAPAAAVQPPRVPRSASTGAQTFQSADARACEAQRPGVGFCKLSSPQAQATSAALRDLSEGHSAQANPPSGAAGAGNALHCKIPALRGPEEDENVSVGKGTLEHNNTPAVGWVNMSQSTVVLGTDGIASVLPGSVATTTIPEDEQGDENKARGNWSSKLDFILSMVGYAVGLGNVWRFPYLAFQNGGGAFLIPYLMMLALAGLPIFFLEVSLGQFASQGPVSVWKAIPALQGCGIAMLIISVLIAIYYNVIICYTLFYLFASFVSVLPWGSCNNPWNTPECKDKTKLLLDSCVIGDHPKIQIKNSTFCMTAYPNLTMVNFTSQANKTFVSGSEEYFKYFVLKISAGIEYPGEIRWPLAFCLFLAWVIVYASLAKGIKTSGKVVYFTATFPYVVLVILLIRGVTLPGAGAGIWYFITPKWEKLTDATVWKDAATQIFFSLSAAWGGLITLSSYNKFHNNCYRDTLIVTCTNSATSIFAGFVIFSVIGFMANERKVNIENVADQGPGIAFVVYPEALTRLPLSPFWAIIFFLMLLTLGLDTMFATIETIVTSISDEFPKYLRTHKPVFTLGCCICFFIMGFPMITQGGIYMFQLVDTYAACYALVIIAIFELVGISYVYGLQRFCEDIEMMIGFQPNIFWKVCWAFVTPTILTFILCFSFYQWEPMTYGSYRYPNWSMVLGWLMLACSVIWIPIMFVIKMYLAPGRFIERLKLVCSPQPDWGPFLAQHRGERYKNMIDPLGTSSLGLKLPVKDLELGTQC
- experimental.details: [3H]glycine transport by GlyT2 mutant in COS7 cells
- measurement.context: read-out: IC50 (Table S1)
- From the text: To validate the predicted interactions between the inhibitors and GlyT2, we used systematic site-directed mutagenesis to construct substitution mutants of the potential residues involved in ligand binding. […] The GlyT2 residues predicted to interact with the inhibitors through its side chain were replaced by amino acids expected to force the loss of the interaction. […]
The response must be a number in nM with no trailing unit.

molecule="COc1cc(C(=O)NCC2(N(C)C)CCCC2)cc(OC)c1OCc1ccccc1 [ORG25543]" data_value=130

Consider now this further molecule.
Which IC50 reading was recorded for the molecule N[C@@H](COC(c1cccc(F)c1)c1ccccc1OCc1ccccc1)C(=O)O (some centres unmarked) [ALX1393] ?
30
